Provide the reported log10(Kd) of each item.
Biological target: T1, Human BCMA (human, UniProt Q02223 1-54, limits assumed)
T1 construct: also called huBCMA; B-cell maturation antigen
T1 sequence (looked up): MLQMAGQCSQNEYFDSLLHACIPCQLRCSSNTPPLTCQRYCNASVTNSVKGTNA
Assay: SPR, IgG immobilised, human BCMA analyte
Give log10 of Kd, with Kd taken in nM.

BINDER	RESULT
C01_Rd4_0.6nM_C03 (antibody, V domains shown, IgG) VH: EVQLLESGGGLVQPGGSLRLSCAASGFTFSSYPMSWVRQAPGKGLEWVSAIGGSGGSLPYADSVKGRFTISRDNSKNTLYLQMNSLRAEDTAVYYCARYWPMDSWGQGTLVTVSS VL: EIVLTQSPGTLSLSPGERATLSCRASCDVSSTYLAWYQQKPGQAPRLLIYDASSRAPGIPDRFSGSGSGTDFTLTISRLEPEDFAVYYCQQYMRSPLTFGQGTKVEIK	-0.02

Take each entry in turn and give its log10(Kd).
1. A02_Rd4_6nM_C04 (antibody, V domains shown, IgG) VH: EVQLLESGGGLVQPGGSLRLSCAASGFTFSSYAMNWVRQAPGKGLEWVSAIMSSGGPLYYADSVKGRFTISRDNSKNTLYLQMNSLRAEDTAVYYCARYWPMALWGQGTLVTVSS VL: EIVLTQSPGTLSLSPGERATLSCRASQSVSALYLAWYQQKPGQAPRLLMYDASIRATGIPDRFSGSGSGTDFTLTISRLEPEDFAVYYCQQYQVWPLTFGQGTKVEIK
2. A02_Rd4_6nM_C25 (antibody, V domains shown, IgG) VH: EVQLLESGGGLVQPGGSLRLSCAASGFTFSSYAMNWVRQAPGKGLEWVSAISDSGGSRWYADSVKGRFTISRDNSKNTLYLQMNSLRAEDTAVYYCARYWPMTPWGQGTLVTVSS VL: EIVLTQSPGTLSLSPGERATLSCRASQSVSSSYLAWYQQKPGQAPRLLMYDASIRATGIPDRFSGSGSGTDFTLTISRLEPEDFAVYYCQQYLDWPLTFGQGTKVEIK
3. A02_Rd4_6nM_C03 (antibody, V domains shown, IgG) VH: EVQLLESGGGLVQPGGSLRLSCAASGFTFSSYAMNWVRQAPGKGLEWVSAISDSGGSTYYADSVKGRFTISRDNSKNTLYLQMNSLRAEDTAVYYCARYWPMDIWGQGTLVTVSS VL: EIVLTQSPGTLSLSPGERATLSCRASQSVSNLYLAWYQQKPGQAPRLLMYDASIRATGIPDRFSGSGSGTDFTLTISRLEPEDFAVYYCQQYQGWPLTFGQGTKVEIK
4. P5A2_VHVL (antibody, V domains shown, IgG) VH: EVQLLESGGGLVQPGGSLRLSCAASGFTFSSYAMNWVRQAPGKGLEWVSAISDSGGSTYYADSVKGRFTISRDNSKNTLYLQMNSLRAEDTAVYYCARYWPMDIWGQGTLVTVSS VL: EIVLTQSPGTLSLSPGERATLSCRASQSVSSSYLAWYQQKPGQAPRLLMYDASIRATGIPDRFSGSGSGTDFTLTISRLEPEDFAVYYCQQYGSWPLTFGQGTKVEIK
5. A02_Rd4_0.6nM_C03 (antibody, V domains shown, IgG) VH: EVQLLESGGGLVQPGGSLRLSCAASGFTFSSYAMNWVRQAPGKGLEWVSAISDSGGSKWYADSVKGRFTISRDNSKNTLYLQMNSLRAEDTAVYYCARYWPMSLWGQGTLVTVSS VL: EIVLTQSPGTLSLSPGERATLSCRASQSVSSSYLAWYQQKPGQAPRLLMYDASIRATGIPDRFSGSGSGTDFTLTISRLEPEDFAVYYCQQYFTWPLTFGQGTKVEIK
6. COMBO_Rd4_6nM_C07 (antibody, V domains shown, IgG) VH: EVQLLESGGGLVQPGGSLRLSCAASGFTFSSYPMSWVRQAPGKGLEWVSAIGGSGGSLPYADSVKGRFTISRDNSKNTLYLQMNSLRAEDTAVYYCARYWPMADWGQGTLVTVSS VL: EIVLTQSPGTLSLSPGERATLSCRASQPISSSYLAWYQQKPGQAPRLLMYDASIRATGIPDRFSGSGSGTDFTLTISRLEPEDFAVYYCQQYQGWPLTFGQGTKVEIK
7. COMBO_Rd4_0.6nM_C02 (antibody, V domains shown, IgG) VH: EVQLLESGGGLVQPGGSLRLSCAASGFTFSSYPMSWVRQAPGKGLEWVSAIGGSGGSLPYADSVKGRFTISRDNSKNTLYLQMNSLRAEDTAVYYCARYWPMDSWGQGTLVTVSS VL: EIVLTQSPGTLSLSPGERATLSCRASIAVSSTYLAWYQQKPGQAPRLLMYDASIRATGIPDRFSGSGSGTDFTLTISRLEPEDFAVYYCQQYMVWPLTFGQGTKVEIK

// result
1: -0.87; 2: -1.19; 3: -1.12; 4: 0.75; 5: -1.37; 6: -1.46; 7: -1.66

Take each entry in turn and give its log10(Kd).
1. COMBO_Rd4_6nM_C09 (antibody, V domains shown, IgG) VH: EVQLLESGGGLVQPGGSLRLSCAASGFTFSSYPMSWVRQAPGKGLEWVSAIFASGGSTYYADSVKGRFTISRDNSKNTLYLQMNSLRAEDTAVYYCARYWPMDSWGQGTLVTVSS VL: EIVLTQSPGTLSLSPGERATLSCRASQSVSAQYLAWYQQKPGQAPRLLMYDASIRATGIPDRFSGSGSGTDFTLTISRLEPEDFAVYYCQQYQAWPLTFGQGTKVEIK
2. A02_Rd4_6nM_C05 (antibody, V domains shown, IgG) VH: EVQLLESGGGLVQPGGSLRLSCAASGFTFSSYAMNWVRQAPGKGLEWVSAIFASGGSTYYADSVKGRFTISRDNSKNTLYLQMNSLRAEDTAVYYCARYWPMTPWGQGTLVTVSS VL: EIVLTQSPGTLSLSPGERATLSCRASQSVSSSYLAWYQQKPGQAPRLLMYDASIRATGIPDRFSGSGSGTDFTLTISRLEPEDFAVYYCQQYQRWPLTFGQGTKVEIK

// result
[-1.80, -1.00]
